Sourced from ChEMBL document CHEMBL1145056

target: Melanocortin receptor 4 (Homo sapiens, UniProt P32245); assay: Effective concentration of peptide at 50% maximal cAMP generation; type: functional
Sequence (P32245 whole entry): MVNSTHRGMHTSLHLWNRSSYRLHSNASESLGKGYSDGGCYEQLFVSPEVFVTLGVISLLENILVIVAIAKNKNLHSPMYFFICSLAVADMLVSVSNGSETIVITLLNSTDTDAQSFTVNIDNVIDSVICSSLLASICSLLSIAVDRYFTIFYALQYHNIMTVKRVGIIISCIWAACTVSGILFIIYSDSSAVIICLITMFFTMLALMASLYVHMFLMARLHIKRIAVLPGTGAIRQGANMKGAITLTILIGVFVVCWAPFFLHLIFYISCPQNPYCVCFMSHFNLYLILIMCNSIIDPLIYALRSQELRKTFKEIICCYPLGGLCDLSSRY
readout-type: EC50

CC(=O)N[C@H]1CC(=O)NCCCC[C@@H](C(=O)N2CCC[C@H]2C(=O)N2CCC[C@H]2C(=O)N[C@@H](CCCCN)C(=O)N[C@@H](CC(=O)O)C(N)=O)NC(=O)[C@H](Cc2c[nH]c3ccccc23)NC(=O)[C@H](CCCNC(=N)N)NC(=O)[C@@H](Cc2ccccc2)NC(=O)[C@H](Cc2c[nH]cn2)NC(=O)[C@H](CCC(=O)O)NC1=O; > 10 µM
CC(=O)N[C@H]1CSSC[C@@H](C(=O)N2CCC[C@H]2C(=O)N2CCC[C@H]2C(=O)N[C@@H](CCCCN)C(=O)N[C@@H](CC(=O)O)C(N)=O)NC(=O)[C@H](Cc2c[nH]c3ccccc23)NC(=O)[C@H](CCCN=C(N)N)NC(=O)[C@@H](Cc2ccc3ccccc3c2)NC(=O)[C@H](Cc2c[nH]cn2)NC(=O)[C@H](CCC(=O)O)NC1=O; 0.0061 µM
CC(=O)N[C@H]1CSSC[C@H](C(=O)N2CCC[C@H]2C(=O)N2CCC[C@H]2C(=O)N[C@@H](CCCCN)C(=O)N[C@@H](CC(=O)O)C(N)=O)NC(=O)[C@H](Cc2c[nH]c3ccccc23)NC(=O)[C@H](CCCN=C(N)N)NC(=O)[C@@H](Cc2ccc3ccccc3c2)NC(=O)[C@H](Cc2c[nH]cn2)NC(=O)[C@H](CCC(=O)O)NC1=O; > 10 µM
CC(=O)N[C@@H]1C(=O)N[C@@H](CCC(=O)O)C(=O)N[C@@H](Cc2c[nH]cn2)C(=O)N[C@H](Cc2ccc3ccccc3c2)C(=O)N[C@@H](CCCN=C(N)N)C(=O)N[C@@H](Cc2c[nH]c3ccccc23)C(=O)N[C@H](C(=O)N2CCC[C@H]2C(=O)N2CCC[C@H]2C(=O)N[C@@H](CCCCN)C(=O)N[C@@H](CC(=O)O)C(N)=O)CSSC1(C)C; > 10 µM
CC(=O)N[C@H]1CSSC[C@H](C(=O)N2CCC[C@H]2C(=O)N2CCC[C@H]2C(=O)N[C@@H](CCCCN)C(=O)N[C@@H](CC(=O)O)C(N)=O)NC(=O)[C@H](Cc2c[nH]c3ccccc23)NC(=O)[C@H](CCCNC(=N)N)NC(=O)[C@@H](Cc2ccccc2)NC(=O)[C@H](Cc2c[nH]cn2)NC(=O)[C@H](CCC(=O)O)NC1=O; > 10 µM

# context switch: different compound, same EC50
Prompt: Return EC50 for the following compound: "CC(=O)N[C@@H]1CSSC[C@@H](C(=O)N2CCC[C@H]2C(=O)N2CCC[C@H]2C(=O)N[C@@H](CCCCN)C(=O)N[C@@H](CC(=O)O)C(N)=O)NC(=O)[C@H](Cc2c[nH]c3ccccc23)NC(=O)[C@H](CCCNC(=N)N)NC(=O)[C@@H](Cc2ccccc2)NC(=O)[C@H](Cc2c[nH]cn2)NC(=O)[C@H](CCC(=O)O)NC1=O"
Response: > 10 µM

* * *

System: Melanocortin receptor 3 (Homo sapiens) | Read-out: IC50
Could you give me the number in nM? Just the number is fine.

CC(=O)N[C@H]1CSSC[C@H](C(=O)N2CCC[C@H]2C(=O)N2CCC[C@H]2C(=O)N[C@@H](CCCCN)C(=O)N[C@@H](CC(=O)O)C(N)=O)NC(=O)[C@H](Cc2c[nH]c3ccccc23)NC(=O)[C@H](CCCN=C(N)N)NC(=O)[C@@H](Cc2ccc3ccccc3c2)NC(=O)[C@H](Cc2c[nH]cn2)NC(=O)[C@H](CCC(=O)O)NC1=O; 2900

Attention now shifts to the item below.
Prompt: GET IC50 where system = Melanocortin receptor 3 (Homo sapiens) and item = "CC(=O)N[C@@H]1CSSC[C@@H](C(=O)N2CCC[C@H]2C(=O)N2CCC[C@H]2C(=O)N[C@@H](CCCCN)C(=O)N[C@@H](CC(=O)O)C(N)=O)NC(=O)[C@H](Cc2c[nH]c3ccccc23)NC(=O)[C@H](CCCN=C(N)N)NC(=O)[C@@H](Cc2ccc3ccccc3c2)NC(=O)[C@H](Cc2c[nH]cn2)NC(=O)[C@H](CCC(=O)O)NC1=O"
Response: 200

* * *

target: Melanocortin receptor 3 (Homo sapiens, UniProt P41968); test: Effective concentration of peptide at 50% maximal cAMP generation
Sequence (P41968 whole entry): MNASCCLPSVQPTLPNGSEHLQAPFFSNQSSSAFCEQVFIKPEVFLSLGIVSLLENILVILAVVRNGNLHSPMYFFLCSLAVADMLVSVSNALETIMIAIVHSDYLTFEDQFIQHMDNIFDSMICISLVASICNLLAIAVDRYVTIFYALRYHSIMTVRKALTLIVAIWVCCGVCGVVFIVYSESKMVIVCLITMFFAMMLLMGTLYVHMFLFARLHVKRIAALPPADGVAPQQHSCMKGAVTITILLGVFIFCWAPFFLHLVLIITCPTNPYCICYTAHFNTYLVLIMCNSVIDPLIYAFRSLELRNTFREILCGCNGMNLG
readout-type: EC50

CC(=O)N[C@@H]1CSSC[C@@H](C(=O)N2CCC[C@H]2C(=O)N2CCC[C@H]2C(=O)N[C@@H](CCCCN)C(=O)N[C@@H](CC(=O)O)C(N)=O)NC(=O)[C@H](Cc2c[nH]c3ccccc23)NC(=O)[C@H](CCCNC(=N)N)NC(=O)[C@@H](Cc2ccccc2)NC(=O)[C@H](Cc2c[nH]cn2)NC(=O)[C@H](CCC(=O)O)NC1=O; > 10 µM
CC(=O)N[C@@H]1CSSC[C@@H](C(=O)N2CCC[C@H]2C(=O)N2CCC[C@H]2C(=O)N[C@@H](CCCCN)C(=O)N[C@@H](CC(=O)O)C(N)=O)NC(=O)[C@H](Cc2c[nH]c3ccccc23)NC(=O)[C@H](CCCN=C(N)N)NC(=O)[C@@H](Cc2ccc3ccccc3c2)NC(=O)[C@H](Cc2c[nH]cn2)NC(=O)[C@H](CCC(=O)O)NC1=O; > 10 µM
CC(=O)N[C@@H]1C(=O)N[C@@H](CCC(=O)O)C(=O)N[C@@H](Cc2c[nH]cn2)C(=O)N[C@H](Cc2ccccc2)C(=O)N[C@@H](CCCN=C(N)N)C(=O)N[C@@H](Cc2c[nH]c3ccccc23)C(=O)N[C@H](C(=O)N2CCC[C@H]2C(=O)N2CCC[C@H]2C(=O)N[C@@H](CCCCN)C(=O)N[C@@H](CC(=O)O)C(N)=O)CSSC1(C)C; 0.0028 µM

Prompt: State its EC50 for this compound: "CC(=O)N[C@@H]1C(=O)N[C@@H](CCC(=O)O)C(=O)N[C@@H](Cc2c[nH]cn2)C(=O)N[C@H](Cc2ccc3ccccc3c2)C(=O)N[C@@H](CCCN=C(N)N)C(=O)N[C@@H](Cc2c[nH]c3ccccc23)C(=O)N[C@H](C(=O)N2CCC[C@H]2C(=O)N2CCC[C@H]2C(=O)N[C@@H](CCCCN)C(=O)N[C@@H](CC(=O)O)C(N)=O)CSSC1(C)C"
Response: > 10 µM

Prompt: Supply measured EC50 of "CC(=O)N[C@H]1CSSC[C@@H](C(=O)N2CCC[C@H]2C(=O)N2CCC[C@H]2C(=O)N[C@@H](CCCCN)C(=O)N[C@@H](CC(=O)O)C(N)=O)NC(=O)[C@H](Cc2c[nH]c3ccccc23)NC(=O)[C@H](CCCNC(=N)N)NC(=O)[C@@H](Cc2ccccc2)NC(=O)[C@@H]2CCCN2C(=O)[C@H](CCC(=O)O)NC1=O" in your reply.
Response: 0.401 µM

Prompt: Specify measured EC50 for "CC(=O)N[C@H]1CSSC[C@H](C(=O)N2CCC[C@H]2C(=O)N2CCC[C@H]2C(=O)N[C@@H](CCCCN)C(=O)N[C@@H](CC(=O)O)C(N)=O)NC(=O)[C@H](Cc2c[nH]c3ccccc23)NC(=O)[C@H](CCCNC(=N)N)NC(=O)[C@@H](Cc2ccccc2)NC(=O)[C@H](Cc2c[nH]cn2)NC(=O)[C@H](CCC(=O)O)NC1=O" .
Response: > 10 µM

* * *

Heads up, these compounds all have IC50 values measured for Melanocortin receptor 3 (Homo sapiens, UniProt P41968).
Answer in µM, number only, no unit symbol.

Prompt: # return IC50 for "CC(=O)N[C@@H]1C(=O)N[C@@H](CCC(=O)O)C(=O)N[C@@H](Cc2c[nH]cn2)C(=O)N[C@H](Cc2ccccc2)C(=O)N[C@@H](CCCN=C(N)N)C(=O)N[C@@H](Cc2c[nH]c3ccccc23)C(=O)N[C@H](C(=O)N2CCC[C@H]2C(=O)N2CCC[C@H]2C(=O)N[C@@H](CCCCN)C(=O)N[C@@H](CC(=O)O)C(N)=O)CSSC1(C)C" , test system: Melanocortin receptor 3 (Homo sapiens, UniProt P41968)
Response: 0.43

Prompt: Answer briefly: IC50 recorded on Melanocortin receptor 3 (Homo sapiens, UniProt P41968) for "CC(=O)N[C@@H]1CSSC[C@@H](C(=O)N2CCC[C@H]2C(=O)N2CCC[C@H]2C(=O)N[C@@H](CCCCN)C(=O)N[C@@H](CC(=O)O)C(N)=O)NC(=O)[C@H](Cc2c[nH]c3ccccc23)NC(=O)[C@H](CCCNC(=N)N)NC(=O)[C@@H](Cc2ccccc2)NC(=O)[C@H](Cc2c[nH]cn2)NC(=O)[C@H](CCC(=O)O)NC1=O"
Response: 0.62

Prompt: Send back Melanocortin receptor 3 (Homo sapiens, UniProt P41968) IC50 of "CC(=O)N[C@H]1CSSC[C@@H](C(=O)N2CCC[C@H]2C(=O)N2CCC[C@H]2C(=O)N[C@@H](CCCCN)C(=O)N[C@@H](CC(=O)O)C(N)=O)NC(=O)[C@H](Cc2c[nH]c3ccccc23)NC(=O)[C@H](CCCNC(=N)N)NC(=O)[C@@H](Cc2ccc3ccccc3c2)NC(=O)[C@@H]2CCCN2C(=O)[C@H](CCC(=O)O)NC1=O" only.
Response: 0.031

Prompt: Fill: IC50 (Melanocortin receptor 3 (Homo sapiens, UniProt P41968)) for this compound "CC(=O)N[C@H]1CSSC[C@@H](C(=O)N2CCC[C@H]2C(=O)N2CCC[C@H]2C(=O)N[C@@H](CCCCN)C(=O)N[C@@H](CC(=O)O)C(N)=O)NC(=O)[C@H](Cc2c[nH]c3ccccc23)NC(=O)[C@H](CCCN=C(N)N)NC(=O)[C@@H](Cc2ccc3ccccc3c2)NC(=O)[C@H](Cc2c[nH]cn2)NC(=O)[C@H](CCC(=O)O)NC1=O"
Response: 0.13
